Biological target: T1, PCSK9.H7.C11 I-OnuI HE variant (synthetic construct (Ophiostoma …))
T1 chain: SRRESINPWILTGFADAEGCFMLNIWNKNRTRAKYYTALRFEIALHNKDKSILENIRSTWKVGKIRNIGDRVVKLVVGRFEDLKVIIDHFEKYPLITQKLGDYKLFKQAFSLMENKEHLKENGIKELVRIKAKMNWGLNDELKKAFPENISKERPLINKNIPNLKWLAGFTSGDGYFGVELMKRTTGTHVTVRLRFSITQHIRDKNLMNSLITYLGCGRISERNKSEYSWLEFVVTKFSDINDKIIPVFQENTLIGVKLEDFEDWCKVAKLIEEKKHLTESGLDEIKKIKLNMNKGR
Test: flow; sub-nanomolar affinity; yeast surface display substrate titration; exact value only in figure
Settings: tags: yeast surface display
Parameter measured: Kd

[[record]]
binder = "PCSK9 exon 4 HE target site (dsDNA) DNA 1: ATCTAAGAGATACACCTCCACC DNA 2: GGTGGAGGTGTATCTCTTAGAT"
result = "< 1 nM"

